Readings of melting point for the listed molecules

Consider the worked cases shown below.
molecule: NC(=O)c1cnn2cccc2c1NC1CCC(O)CC1 (stereo unspecified)
quantity-kind: melting point
test-result: 192 °C
--
molecule: Cc1[nH]c(-c2ccccc2F)c(C)c1C#N
quantity-kind: melting point
test-result: 125 to 127 °C
--
molecule: N#CCOC(=O)c1ccc(C(c2ccccc2)(c2ccccc2)c2ccccc2)cn1
quantity-kind: melting point
test-result: 173 to 175 °C
--
molecule: OCc1ccccc1-c1nc(-c2ccc(Cl)cc2)n[nH]1
quantity-kind: melting point
test-result: 252 to 254 °C
--
molecule: CCCn1c(CCOC)nc2c(N)nc3cc(Oc4ccc(S(C)(=O)=O)cc4)ccc3c21
quantity-kind: melting point
test-result: 210 to 212 °C

Moving on to the next molecule.
Query string: May I ask what melting point has been recorded for COc1cccc(Sc2ccnc(Nc3cccc(CN)c3)n2)c1 ?
Result string: 120 to 121 °C

* * *

Readings of melting point for the listed compounds

compound: Cn1c(C#N)ccc1CC(=O)O
melting point: 125 to 126 °C
--
compound: CCOC(=O)/C(=N\OCC=C(Cl)Cl)c1csc(N)n1
melting point: 135 to 136 °C

Query string: May I ask what melting point has been recorded for COc1cc(C(=O)Cl)ccc1S(=O)(=O)Cl ?
Result string: 86 to 88 °C

Query string: Same question, COC(=O)C(CCCN(C)CCc1ccc(OC)c(OC)c1)c1ccc(OC)c(OC)c1 (stereo not given) this time
Result string: 112 to 114 °C

Query string: Same question, Nc1c(F)c(N2C[C@@H](N)[C@@H](n3ccnn3)C2)c(F)c2c1c(=O)c(C(=O)O)cn2C1CC1 (relative stereo) this time
Result string: 275 to 277 °C

Query string: Same question, Cc1noc(C)c1S(=O)(=O)Nc1ccc2c(c1)S(=O)(=O)C=C(c1c(O)c3cc(F)ccc3n(CCC3CC3)c1=O)N2 this time
Result string: 150 to 157 °C

Query string: Same question, COc1ccc2c(n1)c(C=O)c1n2Cc2ccccc2-1 this time
Result string: 229 to 230 °C

* * *

quantity-kind: melting point

molecule: O=C(O)CCCC(=O)c1cc2c(=O)c3ccccc3ccc2s1
melting point: 149 to 151 °C

Query string: May I ask what melting point has been recorded for O=[N+]([O-])c1ccc2ncccc2c1O ?
Result string: 245 °C

Query string: Same question, CCC(CC)Nc1c(NCc2cc(C)cc(C#N)c2)c(=O)c1=O this time
Result string: 248 to 250 °C

* * *

Readings of melting point for the listed compounds

Consider the worked cases shown below.
compound: N#Cc1c(C(=O)O)cnn1-c1ccc(Cl)cc1
melting point: 192 to 195 °C
//
compound: CCCc1nc2c(N)nc3cc(-c4cccc(C(=O)N(CC)CC)c4)ccc3c2s1
melting point: 169 to 172 °C
//
compound: OC[C@H](O)COc1ccccc1OCC1CC1
melting point: 95 to 97 °C
//
compound: O=S(=O)(c1ccc(O)cc1)N1CCCC1
melting point: 122 to 125 °C

Moving on to the next compound.
Query string: May I ask what melting point has been recorded for O=C1CCC(c2ccccc2)(c2ccccc2)CN1 ?
Result string: 177 to 180 °C

* * *

quantity-kind: melting point

Consider the worked cases shown below.
molecule: CC1(C)OC(=S)Nc2ccc(-c3cccc(CC#N)n3)cc21
melting point: 215 to 217 °C
//
molecule: CCOC(=O)C1=C(c2ccccc2)Nc2n[nH]cc2C1c1ccccc1OC (centres undefined)
melting point: 195 °C
//
molecule: COCc1nc2c3c(ccn2c1C)[C@@H](O)[C@H](O)[C@@H](c1ccccc1)N3
melting point: 102 to 104 °C

Query string: May I ask what melting point has been recorded for COc1cc(N2CCC(N3CCN(C)CC3)CC2)ccc1N ?
Result string: 94 to 99 °C

Query string: Same question, COc1cc(OC)nc(Oc2cccc(Cl)c2NS(C)(=O)=O)n1 this time
Result string: 147 to 148 °C

Query string: Same question, O=C(C(=O)c1ccc(Oc2ccc(O)cc2)cc1)c1ccc(Oc2ccc(O)cc2)cc1 this time
Result string: 220 to 221 °C

Query string: Same question, CCc1ccccc1-c1cn(C)cc(-c2cccc(C(F)(F)F)c2)c1=O this time
Result string: 123 to 125 °C

Query string: Same question, O=C1C(=O)c2c(nc3ccc(Cl)cn23)-c2cccc(Cl)c21 this time
Result string: > 260 °C

Query string: Same question, COc1cc(C2CCN(C(=O)CN)CC2)ccc1Nc1ncc2ccc(-c3ccccc3OC)n2n1 this time
Result string: 86 to 99 °C

Query string: Same question, CCc1cc(OC)cc(C(=O)O)c1C(=O)OC this time
Result string: 116 to 118 °C

Query string: Same question, C=CCN(CC=C)c1nc(NC(=O)c2ccco2)n2oc(=O)nc2n1 this time
Result string: 159 to 162 °C

Query string: Same question, Cc1c(C(O)C2CCc3c(c4ccccc4n3C)C2=O)ncn1C(c1ccccc1)(c1ccccc1)c1ccccc1 (centres undefined) this time
Result string: 141 to 147 °C

Query string: Same question, Nc1cc(C(O)=S)cc(Cc2ccccc2)c1Cc1ccccc1 this time
Result string: 256 to 257 °C

Query string: Same question, CC(C#N)c1ccc2nc(-c3ccccc3)ccc2c1 (centres undefined) this time
Result string: 126 °C

Query string: Same question, Cc1ccc2nc(C)c(CCN3CCC(c4noc5cc(F)ccc45)CC3)c(=O)n2c1 this time
Result string: 187 °C

* * *

Readings of melting point for the listed compounds

Consider the worked cases shown below.
compound: COc1ccc(C(=O)N[C@H]2CCN(C)C[C@H]2c2ccccc2)cc1 (relative stereo)
melting point: 165 to 166 °C

compound: CSC1N=C(N)C=C(Cl)N1c1c([N+](=O)[O-])cc(C(F)(F)F)c(Cl)c1[N+](=O)[O-] (stereo not given)
melting point: 171 to 175 °C

compound: CS(=O)(=O)c1nc(Cl)c(Cc2ccccc2)c(N2CCCC2)n1
melting point: 136 to 138 °C

compound: Nc1cccc2c1C(=O)C1=C(CCCC1)C2=O
melting point: 189 to 191 °C

Moving on to the next compound.
Query string: May I ask what melting point has been recorded for CCOC(=O)C(=O)N1Cc2cc(OC)ccc2C(Cc2c(Cl)cncc2Cl)=N1 ?
Result string: 140 to 142 °C

* * *

Readings of melting point for the listed molecules

Consider the worked cases shown below.
molecule: O=C(O)COc1cccc2c1CCC(Cc1nc(C(c3ccccc3)c3ccccc3)co1)C2 (centres undefined)
melting point: 130 to 132 °C
//
molecule: CS(=O)(=O)NC(=O)c1cccc(N)c1
melting point: 153 to 155 °C
//
molecule: CC(=O)Nc1cccc(-c2cc3nc(-c4cccnc4N)n(-c4cccc(-c5cc(C)nc6ccc(NC(C)=O)cc56)c4)c3nc2-c2cccnc2)c1
melting point: 176 to 178 °C

Moving on to the next molecule.
Query string: May I ask what melting point has been recorded for O=C(Nc1ccc2ccc(N3CCCC3)nc2n1)c1ccccc1 ?
Result string: 130 °C

* * *

quantity-kind: melting point

Query string: May I ask what melting point has been recorded for O=C(NCc1ccc(Cl)cc1)c1cnc2c(F)cc(C#CCCCO)cc2c1O ?
Result string: 208 to 209 °C

Query string: Same question, C#CCN(c1ccc(C(=O)O)cc1)C1CCc2cc3nc(C)[nH]c(=O)c3cc21 (racemic) this time
Result string: 264 °C

Query string: Same question, CC(C)(C)c1cc(-c2ccc(NC(=O)c3ccccc3C(=O)O)cc2)cc(C(C)(C)C)c1O this time
Result string: 196 to 198 °C

Query string: Same question, Cc1nc2c3c(c(C(N)=O)cc2n1C)CCC(c1ccccc1)O3 (stereo unspecified) this time
Result string: 264 to 267 °C

Query string: Same question, CC(=O)Nc1cccc2c(-c3ccc(=O)n(C(C)C)n3)c(-c3ccccc3)nn12 this time
Result string: 92 to 96 °C

* * *

Readings of melting point for the listed compounds

compound: CN(C)Cc1ccc(CSCCNC2=NS(=O)(=O)N=C2NO)o1
melting point: 203 to 205 °C
//
compound: CC(C)(C)OC(=O)N1CCN(c2ccc([N+](=O)[O-])cc2)CC1
melting point: 136 to 140 °C
//
compound: Cc1ccc(Cl)c(Nc2ccccc2-c2n[nH]c(=S)s2)c1Cl
melting point: 250 to 252 °C
//
compound: Cc1nc(N)c2nc(C)n(NC3CCOCC3)c2c1C
melting point: 240 to 242 °C
//
compound: C[C@@H]1CNC(=O)c2cc3cc(F)cc(Br)c3n21
melting point: 188 °C

Query string: May I ask what melting point has been recorded for Cc1ccccc1-c1c(Cn2cnc3c(N)ncnc32)oc2ccc(Br)cc2c1=O ?
Result string: 252 to 255 °C

Query string: Same question, O=Cc1csc(-c2ccccc2)c1 this time
Result string: 64 to 65 °C

Query string: Same question, COc1cc(CN2CCN(C(=O)c3ccc4c(c3)C(=O)c3ccccc3C4=O)CC2)cc(OC)c1OC this time
Result string: 158 to 160 °C

Query string: Same question, CCCOc1ccc(S(=O)(=O)N2CCN(C)CC2)cc1-c1cc2c(=O)n(C)c(=O)n(CCC)c2[nH]1 this time
Result string: 240 °C

Query string: Same question, CC(C(=O)O)c1ccc2nc(-c3ccccc3)oc2c1 (stereo not given) this time
Result string: 132 °C

Ref: a melting point compilation (Tetko et al.; mined from patent text by program, amines drawn as free bases though some values may be those of a salt)
